Quick reference: IC50 of the listed items.
target: human adrenergic-α2A receptor (Homo sapiens); construct: expressed in transfected cells; host or cells: CHO cells, stably transfected; membrane preparation; test: Radioligand binding experiment for hα2A-adrenergic receptor ([3H]raulwolscine); conditions: [3H]raulwolscine 1 nM, 60 minutes at 25° C.; read-out: h-α2A pIC50 (converted)
Sequence (P08913 whole entry): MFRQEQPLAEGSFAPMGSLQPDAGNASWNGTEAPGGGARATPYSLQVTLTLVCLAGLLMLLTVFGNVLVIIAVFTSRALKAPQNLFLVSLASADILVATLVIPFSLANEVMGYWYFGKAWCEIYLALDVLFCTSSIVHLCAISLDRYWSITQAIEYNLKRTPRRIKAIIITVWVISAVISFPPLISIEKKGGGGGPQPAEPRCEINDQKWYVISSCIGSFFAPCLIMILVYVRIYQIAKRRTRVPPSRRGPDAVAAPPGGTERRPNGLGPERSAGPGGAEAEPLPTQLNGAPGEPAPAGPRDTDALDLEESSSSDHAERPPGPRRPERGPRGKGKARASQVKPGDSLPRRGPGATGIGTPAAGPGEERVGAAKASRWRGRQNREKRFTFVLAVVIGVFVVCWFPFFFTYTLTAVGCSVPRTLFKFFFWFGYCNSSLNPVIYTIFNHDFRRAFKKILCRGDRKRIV

smiles_str | unit_symbol | IC50
NCc1ccc(-n2ccnc(NC3CCN(Cc4ccc5ccccc5c4)CC3)c2=O)cc1 | nM | 200
Cc1ccc(CNCc2ccc(-n3ccnc(NC4CCN(Cc5ccc6ccccc6c5)CC4)c3=O)cc2F)o1 | nM | 200
O=c1c(NC2CCN(Cc3ccc4ccccc4c3)CC2)nccn1-c1ccc(CNCCN2CCOCC2)cc1 | nM | 316
O=c1c(NC2CCN(Cc3ccc4ccccc4c3)CC2)nccn1-c1cnc2ccccc2c1 | nM | 200

----------
molecule | melting point
O=c1c(NC2CCN(Cc3ccc4ccccc4c3)CC2)nccn1-c1cccnc1 | > 300 °C
O=c1c(NC2CCN(Cc3ccc4ccccc4c3)CC2)nccn1-c1ccc(CNCC2CCCO2)cc1 (stereo not drawn) [1-79a] | > 300 °C
O=c1c(NC2CCN(Cc3ccc4ccccc4c3)CC2)nccn1-c1ccc(NCC2CCCO2)cc1 (stereo not drawn) | > 300 °C

----------
The compounds listed here are annotated with their IC50.
molecular target: 5HT-transporter (Homo sapiens, UniProt P31645); construct: Human platelet membranes (Oceanix Biosciences Corporation, Hanover, Md., USA) were thawed; tissue Oceanix Biosciences Corporation, Hanover, Md., USA; host or cells: human platelet membranes; assay: Binding experiment for the 5HT-transporter ([3H]paroxetine, human platelet membranes); conditions: [3H]paroxetine 0.5 nM, 60 min at 25° C., read-out: h-5HTT pIC50 (converted)
Sequence (P31645 whole entry): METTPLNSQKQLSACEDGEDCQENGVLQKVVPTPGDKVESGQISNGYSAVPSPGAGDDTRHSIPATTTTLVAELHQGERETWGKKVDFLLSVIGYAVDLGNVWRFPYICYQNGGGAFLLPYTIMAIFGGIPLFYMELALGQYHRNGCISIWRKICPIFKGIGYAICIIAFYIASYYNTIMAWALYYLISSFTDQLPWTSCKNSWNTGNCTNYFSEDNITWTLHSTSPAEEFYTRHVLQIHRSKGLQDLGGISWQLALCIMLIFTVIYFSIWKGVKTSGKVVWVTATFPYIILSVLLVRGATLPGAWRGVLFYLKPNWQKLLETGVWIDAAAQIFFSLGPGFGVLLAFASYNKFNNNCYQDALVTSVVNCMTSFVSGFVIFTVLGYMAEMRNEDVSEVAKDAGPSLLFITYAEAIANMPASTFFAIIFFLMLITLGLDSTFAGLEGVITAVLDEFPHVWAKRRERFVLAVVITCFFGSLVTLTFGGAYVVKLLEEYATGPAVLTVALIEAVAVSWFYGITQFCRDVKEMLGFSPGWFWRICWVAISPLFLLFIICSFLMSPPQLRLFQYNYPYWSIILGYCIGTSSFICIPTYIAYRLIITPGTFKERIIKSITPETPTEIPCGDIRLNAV

smiles_str | unit_symbol | value_relation_sign | IC50
O=c1c(NC2CCN(Cc3ccc4ccccc4c3)CC2)nccn1-c1ccc(CNCCN2CCOCC2)cc1 | nM | = | 15.8
O=c1c(NC2CCN(Cc3ccc4ccccc4c3)CC2)nccn1-c1cnc2ccccc2c1 | nM | = | 50.1
O=c1c(N2CCN(Cc3ccc4ccccc4n3)CC2)nccn1Cc1ccccc1 | nM | > | 10000

----------
Target: human adrenergic-α2C receptor (Homo sapiens, UniProt P18825)
Construct: expressed in transfected cells; host or cells: CHO cells, stably transfected; membrane preparation
Sequence (P18825 whole entry): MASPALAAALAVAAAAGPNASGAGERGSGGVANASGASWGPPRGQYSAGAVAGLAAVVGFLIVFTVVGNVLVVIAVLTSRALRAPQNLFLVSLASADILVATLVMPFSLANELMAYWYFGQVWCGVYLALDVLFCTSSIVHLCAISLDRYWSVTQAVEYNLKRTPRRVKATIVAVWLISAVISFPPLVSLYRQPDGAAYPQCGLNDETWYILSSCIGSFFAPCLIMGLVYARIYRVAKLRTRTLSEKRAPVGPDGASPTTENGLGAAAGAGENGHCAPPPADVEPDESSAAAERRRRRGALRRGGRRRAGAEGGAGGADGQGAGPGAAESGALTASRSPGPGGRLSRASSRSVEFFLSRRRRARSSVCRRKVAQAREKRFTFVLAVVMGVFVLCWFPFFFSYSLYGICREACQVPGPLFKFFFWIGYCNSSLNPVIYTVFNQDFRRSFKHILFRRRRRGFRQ
Test: Radioligand binding experiment for hα2C-adrenoceptor ([3H]raulwolscine)
Settings: [3H]raulwolscine 1 nM, 60 minutes at 25° C.; read-out: h-α2C pIC50 (converted)
Description: The interaction of the compounds of Formula (I) with α2C-adrenoceptor receptors was assessed in in vitro radioligand binding experiments. […] When equilibrium of binding is reached, the receptor bound radioactivity is separated from the non-bound radioactivity, and the receptor- or transporter-bound activity is counted. The interaction of the test compounds with the receptor is assessed in competition binding experiments. […]
Below is a list of entries, each paired with its recorded IC50 value.

molecule | IC50 (nM)
Cc1ccc(CNC(=O)NCc2ccc(-n3ccnc(NC4CCN(Cc5ccc6ccccc6c5)CC4)c3=O)cc2)cc1F [1-49] | 39.8
COCCCNC(=O)NCc1ccc(-n2ccnc(NC3CCN(Cc4ccc5ccccc5c4)CC3)c2=O)cc1 [1-46] | 39.8
O=C(NCc1ccccc1)NCc1ccc(-n2ccnc(NC3CCN(Cc4ccc5ccccc5c4)CC3)c2=O)cc1 [1-48] | 39.8
